Target: Ubiquitin-conjugating enzyme E2 N (Homo sapiens) (UniProt P61088)
Sequence (P61088 whole entry, looked up): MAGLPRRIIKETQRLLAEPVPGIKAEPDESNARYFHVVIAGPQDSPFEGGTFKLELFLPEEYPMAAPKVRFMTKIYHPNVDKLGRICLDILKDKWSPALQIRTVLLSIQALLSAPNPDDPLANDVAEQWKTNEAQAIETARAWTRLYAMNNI
Assay: UBE2N binders by NMR, biophysical, purified protein (AID 1552)
Settings: NMR binding to purified UBE2N
Active and inactive are the calls of the source. The rule behind the calls is not given here.
value type: Kd

The compound `Fc1cccc(Cl)c1CN1CCNCC1` , tested on Ubiquitin-conjugating enzyme E2 N (Homo sapiens) (UniProt P61088), showed Kd of > 4 mM (inactive)

The compound `COc1ccc(N2C(=O)CCC2=O)c(OC)c1` , tested on Ubiquitin-conjugating enzyme E2 N (Homo sapiens) (UniProt P61088), showed Kd of > 4 mM (inactive)

The compound `CC(=O)n1nc(-c2cccnc2)nc1N` , tested on Ubiquitin-conjugating enzyme E2 N (Homo sapiens) (UniProt P61088), showed Kd of > 4 mM (inactive)

The compound CC(=O)O[C@H]1C[C@@H](OC(C)=O)C(C)(C)C2CC(=O)[C@]3(C)C(CC[C@@]4(C)[C@H](C(=O)O)OC(=O)C5OC543)[C@]21C (stereo partly drawn) , tested on Ubiquitin-conjugating enzyme E2 N (Homo sapiens) (UniProt P61088), showed Kd of > 4 mM (inactive)

The compound `Cc1cc(C(=O)N2CCN(S(C)(=O)=O)CC2)cs1` , tested on Ubiquitin-conjugating enzyme E2 N (Homo sapiens) (UniProt P61088), showed Kd of > 4 mM (inactive)

The compound `C[C@@H](N)[C@@H](O)c1ccccc1` , tested on Ubiquitin-conjugating enzyme E2 N (Homo sapiens) (UniProt P61088), showed Kd of > 4 mM (inactive)

The compound `CSc1nc(=O)[nH]c2c1CCC2` , tested on Ubiquitin-conjugating enzyme E2 N (Homo sapiens) (UniProt P61088), showed Kd of > 4 mM (inactive)

The compound `Nc1cccc(S(N)(=O)=O)c1` , tested on Ubiquitin-conjugating enzyme E2 N (Homo sapiens) (UniProt P61088), showed Kd of > 4 mM (inactive)

The compound `O=C1CN(C(=O)c2ccccc2)c2ccccc2N1` , tested on Ubiquitin-conjugating enzyme E2 N (Homo sapiens) (UniProt P61088), showed Kd of > 4 mM (inactive)

The compound `O=C(O)CC[N+](=O)[O-]` , tested on Ubiquitin-conjugating enzyme E2 N (Homo sapiens) (UniProt P61088), showed Kd of > 4 mM (inactive)

The compound CC(=O)O[C@H]1CC[C@@]2(C)C(CC[C@]3(C)C2C(=O)C=C2C4[C@@H](C)[C@H](C)CC[C@]4(C(=O)O)CC[C@]23C)C1(C)C (stereo partly drawn) , tested on Ubiquitin-conjugating enzyme E2 N (Homo sapiens) (UniProt P61088), showed Kd of > 4 mM (inactive)

The compound `O=C1c2ccccc2C(=O)c2c1ccc(O)c2O` , tested on Ubiquitin-conjugating enzyme E2 N (Homo sapiens) (UniProt P61088), showed Kd of > 4 mM (inactive)

The compound C[C@@H]1CC[C@@]2(OC1)O[C@H]1CC3C4CC[C@H]5C[C@@H](O)CC[C@]5(C)C4CC[C@]3(C)[C@H]1[C@@H]2C (stereo partly drawn) , tested on Ubiquitin-conjugating enzyme E2 N (Homo sapiens) (UniProt P61088), showed Kd of > 4 mM (inactive)

The compound `COC(=O)NCc1cc2cc(Cl)ccc2[nH]1` , tested on Ubiquitin-conjugating enzyme E2 N (Homo sapiens) (UniProt P61088), showed Kd of > 4 mM (inactive)

The compound `COc1ccc(C(=O)NNC(=S)NC(C)=O)cc1` , tested on Ubiquitin-conjugating enzyme E2 N (Homo sapiens) (UniProt P61088), showed Kd of > 4 mM (inactive)

The compound CN1C(=O)C2CC=C(Cl)CC2C1=O (stereo not drawn) , tested on Ubiquitin-conjugating enzyme E2 N (Homo sapiens) (UniProt P61088), showed Kd of > 4 mM (inactive)

The compound `Cc1ccccc1-n1c(-c2cccnc2)n[nH]c1=S` , tested on Ubiquitin-conjugating enzyme E2 N (Homo sapiens) (UniProt P61088), showed Kd of > 4 mM (inactive)

The compound `CC(C)Oc1ccc(NC(N)=O)cc1` , tested on Ubiquitin-conjugating enzyme E2 N (Homo sapiens) (UniProt P61088), showed Kd of > 4 mM (inactive)

The compound `Nc1nc2n(c1C(=O)c1ccccc1)CCC2` , tested on Ubiquitin-conjugating enzyme E2 N (Homo sapiens) (UniProt P61088), showed Kd of > 4 mM (inactive)

The compound `OCCNc1nc2ccc(Cl)cc2[nH]1` , tested on Ubiquitin-conjugating enzyme E2 N (Homo sapiens) (UniProt P61088), showed Kd of > 4 mM (inactive)

The compound `CNC(=O)C(=O)Nc1ccc(F)cc1` , tested on Ubiquitin-conjugating enzyme E2 N (Homo sapiens) (UniProt P61088), showed Kd of > 4 mM (inactive)

The compound `Cc1cc(C)cc(C(=O)N2CCC(C(N)=O)CC2)c1` , tested on Ubiquitin-conjugating enzyme E2 N (Homo sapiens) (UniProt P61088), showed Kd of > 4 mM (inactive)

The compound `N#CCCn1c(=O)oc2ccccc21` , tested on Ubiquitin-conjugating enzyme E2 N (Homo sapiens) (UniProt P61088), showed Kd of > 4 mM (inactive)

The compound CC(C)=CC1C(C(=O)O)C1(C)C (stereo not drawn) , tested on Ubiquitin-conjugating enzyme E2 N (Homo sapiens) (UniProt P61088), showed Kd of > 4 mM (inactive)

The compound `CC(=O)Nc1cccc(N2C(=O)CCC2=O)c1` , tested on Ubiquitin-conjugating enzyme E2 N (Homo sapiens) (UniProt P61088), showed Kd of > 4 mM (inactive)

The compound `Cc1cc(C)nc(N2CC(=O)N(C)C2=N)n1` , tested on Ubiquitin-conjugating enzyme E2 N (Homo sapiens) (UniProt P61088), showed Kd of > 4 mM (inactive)

The compound `Cc1nc2nc(Cc3ccccc3)[nH]n2c(=O)c1Cl` , tested on Ubiquitin-conjugating enzyme E2 N (Homo sapiens) (UniProt P61088), showed Kd of > 4 mM (inactive)

The compound `CS(=O)(=O)N1CCN(c2ccccc2F)CC1` , tested on Ubiquitin-conjugating enzyme E2 N (Homo sapiens) (UniProt P61088), showed Kd of > 4 mM (inactive)

The compound `CN=C(C)c1c(O)n(C)c(=O)n(C)c1=O` , tested on Ubiquitin-conjugating enzyme E2 N (Homo sapiens) (UniProt P61088), showed Kd of > 4 mM (inactive)

The compound `CC(=O)OC/C=C(\C)CC/C=C(\C)CC/C=C(\C)CC/C=C(\C)CC/C=C(\C)CC/C=C(\C)CC/C=C(\C)CC/C=C(\C)CCC=C(C)C` , tested on Ubiquitin-conjugating enzyme E2 N (Homo sapiens) (UniProt P61088), showed Kd of > 4 mM (inactive)

The compound `CC(C)(C(N)=O)/[N+]([O-])=C\c1ccccc1` , tested on Ubiquitin-conjugating enzyme E2 N (Homo sapiens) (UniProt P61088), showed Kd of > 4 mM (inactive)

The compound `CCC(=O)Nc1ccc(-c2nn3c(C)nnc3s2)cc1` , tested on Ubiquitin-conjugating enzyme E2 N (Homo sapiens) (UniProt P61088), showed Kd of > 4 mM (inactive)

The compound `O=C(Nc1cnccn1)c1cccs1` , tested on Ubiquitin-conjugating enzyme E2 N (Homo sapiens) (UniProt P61088), showed Kd of > 4 mM (inactive)

The compound `Cc1nc2ccccc2c(=O)n1N1C(=O)CCCC1=O` , tested on Ubiquitin-conjugating enzyme E2 N (Homo sapiens) (UniProt P61088), showed Kd of > 4 mM (inactive)

The compound `CCNC(=S)N1CCC(C(N)=O)CC1` , tested on Ubiquitin-conjugating enzyme E2 N (Homo sapiens) (UniProt P61088), showed Kd of > 4 mM (inactive)

The compound CC1=CC(C)C(C(=O)O)C(C(=O)N2CCN(C)CC2)C1 (stereo not drawn) , tested on Ubiquitin-conjugating enzyme E2 N (Homo sapiens) (UniProt P61088), showed Kd of > 4 mM (inactive)

The compound `CCOC(=O)CSc1nnc(C)c(=O)[nH]1` , tested on Ubiquitin-conjugating enzyme E2 N (Homo sapiens) (UniProt P61088), showed Kd of > 4 mM (inactive)

The compound `CCOc1ccc(C)cc1S(=O)(=O)n1ccnc1` , tested on Ubiquitin-conjugating enzyme E2 N (Homo sapiens) (UniProt P61088), showed Kd of > 4 mM (inactive)

The compound `COc1ccc(-c2cc(=O)c3c(O)cc(O[C@H]4O[C@H](CO[C@@H]5O[C@@H](C)[C@H](O)[C@@H](O)[C@H]5O)[C@@H](O)[C@H](O)[C@H]4O)cc3o2)cc1` , tested on Ubiquitin-conjugating enzyme E2 N (Homo sapiens) (UniProt P61088), showed Kd of > 4 mM (inactive)

The compound `Cc1nn2c(nc1=O)SCC(c1ccccc1)=N2` , tested on Ubiquitin-conjugating enzyme E2 N (Homo sapiens) (UniProt P61088), showed Kd of > 4 mM (inactive)

The compound `CC(=O)c1cc2c(s1)SCC(=O)N2` , tested on Ubiquitin-conjugating enzyme E2 N (Homo sapiens) (UniProt P61088), showed Kd of > 4 mM (inactive)

The compound `Cc1ccccc1NC(=S)NCCO` , tested on Ubiquitin-conjugating enzyme E2 N (Homo sapiens) (UniProt P61088), showed Kd of > 4 mM (inactive)

The compound `CCOC(=O)CNC(=O)CSc1nnc(C)c(=O)[nH]1` , tested on Ubiquitin-conjugating enzyme E2 N (Homo sapiens) (UniProt P61088), showed Kd of > 4 mM (inactive)

The compound `CC(C)=CCc1c(O)cc(C)oc1=O` , tested on Ubiquitin-conjugating enzyme E2 N (Homo sapiens) (UniProt P61088), showed Kd of > 4 mM (inactive)

The compound `Cn1nnc2cc(C(=O)NCc3ccco3)ccc21` , tested on Ubiquitin-conjugating enzyme E2 N (Homo sapiens) (UniProt P61088), showed Kd of > 4 mM (inactive)

The compound `OCc1ccccc1O[C@@H]1O[C@H](CO)[C@@H](O)[C@H](O)[C@H]1O` , tested on Ubiquitin-conjugating enzyme E2 N (Homo sapiens) (UniProt P61088), showed Kd of > 4 mM (inactive)

The compound CO[C@H]1[C@@H](O)[C@@H](C)O[C@H](O[C@H]2CCC3(C)C4CCC5(C)[C@@H](C6=CC(=O)OC6)CC[C@]5(O)[C@@H]4CC[C@]3(O)C2)[C@@H]1O (stereo partly drawn) , tested on Ubiquitin-conjugating enzyme E2 N (Homo sapiens) (UniProt P61088), showed Kd of > 4 mM (inactive)

The compound `Nc1ccccc1C(=O)N1CCOCC1` , tested on Ubiquitin-conjugating enzyme E2 N (Homo sapiens) (UniProt P61088), showed Kd of > 4 mM (inactive)
